# subject.of.test: Bs-CspB (Bacillus subtilis, UniProt P32081 1-67)
# test.method.notes: tryptophan fluorescence quenching
measured.attribute: Kd (nM)

INSERT INTO assay_data (binder, observed_result) VALUES
  ('GAGTTTTGGTCTTGAA (ssDNA) [dcb2_b]', 43),
  ('GTTTTGTAAGAGT (ssDNA) [dcb2ds_13]', 66),
  ('GAGCAAGAATAGG (ssDNA) [dcb1_b]', 1160),
  ('AAGTTCTGGTTTTGAG (ssDNA) [dcb2_br]', 30),
  ('TTTAAGAAGAAAGTTTT (ssDNA) [dcb2_a]', 460),
  ('GGATAAGAACGAG (ssDNA) [dcb1_br]', 1090),
  ('ATTATTTTTGTTC (ssDNA) [dcb1_a]', 44);
